fold induction values, listed per item
# assay.info: AMES test (reverse mutagenicity test), strain TA98, with and without S-9
# Assay type: cell-based
# run.conditions: s9, TA98, with S9, 78 μg/plate; read-out: magnification of the total number of the mutant colony to the control
Kindly provide the number alone.

Past entries and their recorded results:
compound_structure_string=CCCCc1ccc(N=Nc2c(S(=O)(=O)O)cc3cc(S(=O)(=O)O)c(N=Nc4ccc(C5(c6ccc(N=Nc7ccc(N(C)C)cc7C(=O)O)cc6)CCCCC5)cc4)c(N)c3c2O)cc1 readout_type="fold induction" measured_result=0.94
compound_structure_string=CCCCc1ccc(N=Nc2c(S(=O)(=O)O)cc3cc(S(=O)(=O)O)c(N=Nc4ccc(C5(c6ccc(N=Nc7ccc(N(CC)CC)cc7C)cc6)CCCCC5)cc4)c(N)c3c2O)cc1 readout_type="fold induction" measured_result=0.92

Now consider the entry below.
query: Which fold induction value belongs to "CC(C)c1ccc(N=Nc2c(S(=O)(=O)O)cc3cc(S(=O)(=O)O)c(N=Nc4ccc(C5(c6ccc(N=Nc7ccc(N)cc7O)cc6)CCCCC5)cc4)c(N)c3c2O)cc1" ?
result: 1.27

* * *

Below, each entry is listed with its recorded fold induction.
# assay.info: AMES test (reverse mutagenicity test), strain TA98, with and without S-9
# Assay type: cell-based
# run.conditions: s9, TA98, without S9, 1250 μg/plate; read-out: magnification of the total number of the mutant colony to the control
// return just the number, without any unit appended

compound=Cc1ccc(N=Nc2c(S(=O)(=O)O)cc3cc(S(=O)(=O)O)c(N=Nc4ccc(C5(c6ccc(N=Nc7ccc(N)cc7O)cc6)CCCCC5)cc4)c(N)c3c2O)cc1 readout_type="fold induction" measured_result=1.3
compound="CCC(C)c1ccc(N=Nc2c(S(=O)(=O)O)cc3cc(S(=O)(=O)O)c(N=Nc4ccc(C5(c6ccc(N=Nc7ccc(N)cc7O)cc6)CCCCC5)cc4)c(N)c3c2O)cc1 (stereo not drawn)" readout_type="fold induction" measured_result=0.5

query: Reported fold induction, compound "CCCCc1ccc(N=Nc2c(S(=O)(=O)O)cc3cc(S(=O)(=O)O)c(N=Nc4ccc(C5(c6ccc(N=Nc7ccc(N(C)C)cc7O)cc6)CCCCC5)cc4)c(N)c3c2O)cc1" : ____
result: 0.38

* * *

# assay.info: AMES test (reverse mutagenicity test), strain TA98, with and without S-9
# Assay type: cell-based
# run.conditions: s9, TA98, without S9, 313 μg/plate; read-out: magnification of the total number of the mutant colony to the control
# Experimental: Regarding specimen solutions containing the trisazo compounds (dyes) of the present invention obtained in Examples 1 to 9 and dyes of Comparative Examples 1 to 3, respectively, the total number of the mutant colony was determined using the strain TA98. When the resulting magnification is not more than 2, it is evaluated as "negative". On the other hand, when the resulting magnification is not less than 2, it is evaluated as "positive". […]
readout.type: fold induction
Kindly provide the number alone.

query: Form field: reported fold induction of CCC(C)c1ccc(N=Nc2c(S(=O)(=O)O)cc3cc(S(=O)(=O)O)c(N=Nc4ccc(C5(c6ccc(N=Nc7ccc(N)cc7O)cc6)CCCCC5)cc4)c(N)c3c2O)cc1 (stereo not shown)
result: 0.5

query: Consider the compound "CCCCc1ccc(N=Nc2c(S(=O)(=O)O)cc3cc(S(=O)(=O)O)c(N=Nc4ccc(C5(c6ccc(N=Nc7ccc(N)cc7O)cc6)CCCCC5)cc4)c(N)c3c2O)cc1" and give its measured fold induction.
result: 0.91

query: Which fold induction value is on record for "CCCCc1ccc(N=Nc2c(S(=O)(=O)O)cc3cc(S(=O)(=O)O)c(N=Nc4ccc(C5(c6ccc(N=Nc7ccc(N(C)C)cc7C(=O)O)cc6)CCCCC5)cc4)c(N)c3c2O)cc1" ?
result: 0.86

query: Bench note: what fold induction did "CCCCc1ccc(N=Nc2c(S(=O)(=O)O)cc3cc(S(=O)(=O)O)c(N=Nc4ccc(C5(c6ccc(N=Nc7ccc(N(C)C)cc7O)cc6)CCCCC5)cc4)c(N)c3c2O)cc1" show?
result: 0.58

These measurements were taken from patent US5486601A.
